System: Plasmodium falciparum
assay.notes: Antiplasmodial activity against erythrocytic stage of Plasmodium falciparum NF54 assessed as reduction in [3H]hypoxanthine incorporation after 48 hrs by liquid scintillation counting method
Format: functional, organism-based
Listing of entries alongside the reported pIC50.
Formally, pIC50 is defined as -log10 of the concentration c, with c in mol/L.

molecule	measured.target	pIC50
COc1cc(NC(C)CCCNC(=O)NNC(=O)Nc2ccc(Cl)c(C(F)(F)F)c2)c2ncccc2c1 (centres undefined)	Plasmodium falciparum	4.82
COc1cc(NC(C)CCCNC(=O)NNC(=O)/C=C/c2ccc(Cl)cc2)c2ncccc2c1 (centres undefined)	Plasmodium falciparum	4.62
COc1cc(NC(C)CCCNC(=O)NNC(=O)NC(c2ccccc2)c2ccc(Cl)cc2)c2ncccc2c1 (centres undefined)	Plasmodium falciparum	5.12
COc1ccc(/C=C/C(=O)NNC(=O)NCCCC(C)Nc2cc(OC)cc3cccnc23)cc1 (centres undefined)	Plasmodium falciparum	4.65
COc1cc(NC(C)CCCNC(=O)/C=C/c2ccc(C(F)(F)F)cc2)c2ncccc2c1 (centres undefined)	Plasmodium falciparum	4.89
COc1cc(NC(C)CCCNC(=O)NNC(=O)NC(CO)(CO)CO)c2ncccc2c1 (centres undefined)	Plasmodium falciparum	4.18

Kindly review the next molecule as well.
Ask: Give the measured pIC50 of COc1cc(NC(C)CCCNC(=O)/C=C/c2ccc(OC)c(OC)c2)c2ncccc2c1 (centres undefined) .
Result: 4.92
